Target: T1, hERα-LBD (ligand binding domain of estrogen receptor α) (human, UniProt P03372 297-554)
T1 construct: Assayed with estradiol, diethylstilbestrol, genistein or tamoxifen present; the ligand is named under assay in each row
T1 sequence (looked up): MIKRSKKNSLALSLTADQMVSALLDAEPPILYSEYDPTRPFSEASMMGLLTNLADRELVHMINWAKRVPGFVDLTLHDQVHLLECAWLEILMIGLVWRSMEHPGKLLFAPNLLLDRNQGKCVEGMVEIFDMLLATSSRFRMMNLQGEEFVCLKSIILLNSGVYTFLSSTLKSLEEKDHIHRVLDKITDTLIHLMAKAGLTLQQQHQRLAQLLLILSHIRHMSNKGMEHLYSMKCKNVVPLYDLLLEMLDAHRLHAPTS
Test: fluorescence polarization, labelled peptide 10 nM, hERα-LBD titrated, genistein present; 100 may stand for above the assay limits
Ends that are not written are not given here.
MEASURED_ATTRIBUTE: Kd (µM)
Answers are plain numbers, in µM.

Exercise: GET /values?readout=Kd&item= C(5‑iodoacetamidofluorescein)KKENNALLRYLLDRDDPSD [SRC3-3 coregulator peptide]
Solution: 100
